Biological target: full-length mGluR2 (SNAP-mGluR2) (Rattus norvegicus)
Construct: HEK 293T cells expressing full-length mGluR2; expressed in transfected cells; host or cells: HEK 293T
Sequence (P31421 19-872): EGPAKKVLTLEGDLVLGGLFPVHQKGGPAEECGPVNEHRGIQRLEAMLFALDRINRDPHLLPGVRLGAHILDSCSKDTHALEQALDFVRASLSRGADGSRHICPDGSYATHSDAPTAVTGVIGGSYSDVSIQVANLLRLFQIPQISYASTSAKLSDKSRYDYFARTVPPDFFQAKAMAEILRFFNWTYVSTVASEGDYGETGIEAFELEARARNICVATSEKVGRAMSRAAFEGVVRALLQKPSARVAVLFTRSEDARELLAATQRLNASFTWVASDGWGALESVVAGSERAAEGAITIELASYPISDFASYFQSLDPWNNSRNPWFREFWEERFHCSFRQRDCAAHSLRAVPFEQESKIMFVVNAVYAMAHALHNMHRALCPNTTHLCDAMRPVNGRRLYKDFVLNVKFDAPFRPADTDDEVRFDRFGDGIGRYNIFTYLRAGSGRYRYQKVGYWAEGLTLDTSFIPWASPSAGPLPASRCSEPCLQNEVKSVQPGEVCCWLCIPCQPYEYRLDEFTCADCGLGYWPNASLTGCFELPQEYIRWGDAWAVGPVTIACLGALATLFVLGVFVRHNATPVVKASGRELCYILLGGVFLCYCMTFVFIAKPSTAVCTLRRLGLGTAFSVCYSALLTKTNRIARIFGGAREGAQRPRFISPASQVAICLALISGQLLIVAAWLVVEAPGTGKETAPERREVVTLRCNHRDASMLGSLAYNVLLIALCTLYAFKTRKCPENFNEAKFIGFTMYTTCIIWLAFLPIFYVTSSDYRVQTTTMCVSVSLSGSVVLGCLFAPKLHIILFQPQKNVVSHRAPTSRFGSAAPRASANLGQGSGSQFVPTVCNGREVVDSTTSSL
Test: GIRK activation assay, whole cell patch clamp, HEK 293T cells expressing full-length mGluR2
Format: cell-based
Details: read-out: GIRK activation EC50
Protocol: Cells were cultured in DMEM with 5% FBS on poly-L-lysine-coated glass coverslips. DNA plasmids were transfected into cells using Lipofectamine 3000 (Thermo Fisher). […] Whole-cell patch clamp recordings from single isolated cells were performed 24–36 hr after transfection in a high-potassium extracellular solution containing (in mM): 120 KCl, 29 NaCl, 1 MgCl2, 2 CaCl2 and 10 HEPES, pH 7.4. […] Data were analyzed with Clampfit (Molecular Devices) and Prism (GraphPad). […]
pEC50: −log10 of the molar value.
Recorded pEC50 values for a group of compounds are listed next.
RESULT TYPE: pEC50

>>> df
                                smiles_text  result_number
0  Cc1c(C(N)=O)nc2n1C[C@@H](COc1ccc(C(C)(C)C)cc1)O2           6.42
1  CCS(=O)(=O)N(Cc1cccnc1)c1cccc(-c2ccc(C#N)cc2)c1           6.34

----------
Molecular target: SNAP-mGluR2-TMD-N735D (Rattus norvegicus, UniProt P31421, N735D)
Construct: Following SNAP tag, mGluR2 truncatd to position Q558; N at position 735 replaced with D; expressed in transfected cells; host or cells: HEK 293T
Sequence (P31421 558-872 N735D): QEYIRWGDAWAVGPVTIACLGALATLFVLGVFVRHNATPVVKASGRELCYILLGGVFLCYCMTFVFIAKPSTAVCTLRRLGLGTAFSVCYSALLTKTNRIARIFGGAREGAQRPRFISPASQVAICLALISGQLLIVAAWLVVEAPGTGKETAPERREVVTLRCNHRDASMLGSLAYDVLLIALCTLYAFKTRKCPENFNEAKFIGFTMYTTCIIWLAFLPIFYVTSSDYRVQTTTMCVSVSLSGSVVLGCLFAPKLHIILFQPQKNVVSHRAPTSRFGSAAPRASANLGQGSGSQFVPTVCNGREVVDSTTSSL
Test: Inter-TMD FRET assay, N735D mutant
Assay type: cell-based
Settings: SNAP-mGluR2-TMD-N735D; normalized to saturating LY48; read-out: inter-TMD FRET increase EC50, N735D
pEC50: −log10 of the molar value.
RESULT TYPE: pEC50

>>> print(df.to_string())
                                   compound                              study_target  result_number
0  COc1ccccc1Oc1ccc(N(Cc2cccnc2)S(=O)(=O)CC(F)(F)F)cc1 [LY48]  SNAP-mGluR2-TMD-N735D (Rattus norvegicus, UniProt P31421, N735D)           4.69

----------
Target: full-length mGluR2 (SNAP-mGluR2) (Rattus norvegicus)
Construct: HEK 293T cells expressing full-length mGluR2; expressed in transfected cells; host or cells: HEK 293T
Assay: GIRK activation assay, whole cell patch clamp, HEK 293T cells expressing full-length mGluR2
Assay type: cell-based
Details: wild-type SNAP-mGluR2, HEK 293T; PAM alone; normalized to saturating glutamate; mean ± s.e.m.; read-out: GIRK activation EC50
RESULT TYPE: EC50 (nM)

In [3]: df
Out[3]:
                                smiles_text  result_number
0  COc1ccccc1Oc1ccc(N(Cc2cccnc2)S(=O)(=O)CC(F)(F)F)cc1            230

----------
Target: SNAP-mGluR2-TMD (Rattus norvegicus)
Construct: mGluR2-TMD (rat) starts at Q558; expressed in transfected cells; host or cells: HEK 293T
Experiment: Inter-TMD FRET assay in living HEK 293T cells
Type: cell-based
Conditions: co-expression of dominant negative Gα protein; normalized to saturating LY48; read-out: inter-TMD FRET increase EC50 with dominant negative G protein
RESULT TYPE: EC50 (nM)

In [3]: df
Out[3]:
                                smiles_text  units_text  result_number
0  COc1ccccc1Oc1ccc(N(Cc2cccnc2)S(=O)(=O)CC(F)(F)F)cc1          nM            600

----------
Target: isolated mGluR2 TMD (SNAP-mGluR2-TMD) (Rattus norvegicus, UniProt P31421)
Construct: mGluR2-TMD (rat) starts at Q558
Sequence (P31421 558-872 limits assumed): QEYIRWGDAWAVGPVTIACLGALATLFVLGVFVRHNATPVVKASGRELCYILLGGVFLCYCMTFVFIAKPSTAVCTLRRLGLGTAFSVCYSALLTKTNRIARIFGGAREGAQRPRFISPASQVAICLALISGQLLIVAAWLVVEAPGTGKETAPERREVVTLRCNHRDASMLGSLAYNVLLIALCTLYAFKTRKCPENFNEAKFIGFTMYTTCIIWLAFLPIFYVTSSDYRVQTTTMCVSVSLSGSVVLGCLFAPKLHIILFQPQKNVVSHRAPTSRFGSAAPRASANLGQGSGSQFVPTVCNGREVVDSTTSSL
Experiment: GIRK activation assay, whole cell patch clamp, isolated mGluR2 TMD
Conditions: normalized to saturating LY48
RESULT TYPE: EC50 (µM)

>>> print(df.to_string())
                                   compound  result_number
0  COc1ccccc1Oc1ccc(N(Cc2cccnc2)S(=O)(=O)CC(F)(F)F)cc1 [LY48]           0.14

----------
Target: SNAP-mGluR2-R57A (Rattus norvegicus, UniProt P31421, R57A)
Construct: expressed in transfected cells; host or cells: HEK 293T
Sequence (P31421 19-872 R57A): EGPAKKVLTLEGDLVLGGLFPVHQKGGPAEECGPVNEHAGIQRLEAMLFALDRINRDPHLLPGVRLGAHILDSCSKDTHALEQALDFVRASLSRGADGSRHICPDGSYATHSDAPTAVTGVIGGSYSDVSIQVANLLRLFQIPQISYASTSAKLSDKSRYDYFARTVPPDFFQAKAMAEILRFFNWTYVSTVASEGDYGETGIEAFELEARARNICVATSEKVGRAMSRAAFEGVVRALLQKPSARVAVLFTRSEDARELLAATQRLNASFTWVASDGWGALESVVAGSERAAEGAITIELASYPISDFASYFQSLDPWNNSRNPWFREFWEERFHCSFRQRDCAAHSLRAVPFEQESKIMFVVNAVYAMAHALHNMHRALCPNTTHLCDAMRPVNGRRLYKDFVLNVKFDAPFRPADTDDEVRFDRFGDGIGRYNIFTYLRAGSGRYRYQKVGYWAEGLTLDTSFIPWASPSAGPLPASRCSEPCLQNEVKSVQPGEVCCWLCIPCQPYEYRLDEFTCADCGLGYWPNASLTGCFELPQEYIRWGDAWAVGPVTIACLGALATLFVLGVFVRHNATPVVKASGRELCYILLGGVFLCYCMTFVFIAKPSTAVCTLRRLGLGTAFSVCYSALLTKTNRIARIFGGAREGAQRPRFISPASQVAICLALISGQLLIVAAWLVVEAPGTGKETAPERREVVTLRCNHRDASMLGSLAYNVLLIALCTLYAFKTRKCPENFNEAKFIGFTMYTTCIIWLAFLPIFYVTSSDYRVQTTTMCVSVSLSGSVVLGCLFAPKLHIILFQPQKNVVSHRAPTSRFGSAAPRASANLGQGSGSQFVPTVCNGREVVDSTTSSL
Test: GIRK activation assay, whole cell patch clamp, SNAP-mGluR2-R57A
Type: cell-based
Conditions: mGluR2-R57A; read-out: GIRK activation EC50 (approximate)
RESULT TYPE: EC50

>>> print(df.to_string())
                                   molecule  result_type   result
0  COc1ccccc1Oc1ccc(N(Cc2cccnc2)S(=O)(=O)CC(F)(F)F)cc1 [LY48]         EC50  ~300 nM

----------
Target: SNAP-mGluR2 (full-length) (Rattus norvegicus, UniProt P31421)
Construct: HEK 293T cells expressing full-length mGluR2; expressed in transfected cells; host or cells: HEK 293T
Sequence (P31421 19-872): as the sequence (P31421 19-872) above
Experiment: Inter-LBD FRET assay with full-length SNAP-mGluR2
Format: cell-based
Settings: drug applied alone, saturating concentrations
RESULT TYPE: direct effect on inter-LBD FRET (no orthosteric agonist for modulators)

                                smiles_text            result
0  Cc1c(C(N)=O)nc2n1C[C@@H](COc1ccc(C(C)(C)C)cc1)O2  no FRET response
1  CCS(=O)(=O)N(Cc1cccnc1)c1cccc(-c2ccc(C#N)cc2)c1  no FRET response

----------
Property: EC50; scope: individual molecules
Molecular target: SNAP-mGluR2-TMD (Rattus norvegicus)
Construct: mGluR2-TMD (rat) starts at Q558; expressed in transfected cells; host or cells: HEK 293T
Test: Inter-TMD FRET assay in living HEK 293T cells
Format: cell-based
Conditions: SNAP-mGluR2-TMD labeled with donor and acceptor; normalized to saturating LY48; mean ± s.e.m.; read-out: inter-TMD FRET increase EC50
RESULT TYPE: EC50 (nM)

In [3]: df
Out[3]:
                                smiles_text  units_text  result_number
0  COc1ccccc1Oc1ccc(N(Cc2cccnc2)S(=O)(=O)CC(F)(F)F)cc1          nM           1200
1  CCS(=O)(=O)N(Cc1cccnc1)c1cccc(-c2ccc(C#N)cc2)c1          nM           3500
2  Cc1c(C(N)=O)nc2n1C[C@@H](COc1ccc(C(C)(C)C)cc1)O2          nM            900
3    Clc1cccc(Cl)c1/C(=C/n1cncn1)OC1CCCCCC1          nM           2100

----------
Target: SNAP-mGluR2-TMD (Rattus norvegicus, UniProt P31421)
Construct: mGluR2-TMD (rat) starts at Q558; expressed in transfected cells; host or cells: HEK 293T
Sequence (P31421 558-872 limits assumed): as the sequence (P31421 558-872 limits assumed) above
Assay: Inter-TMD FRET assay in living HEK 293T cells
Format: cell-based
Details: SNAP- and CLIP-mGluR2-TMD co-expressed; normalized to saturating LY48; read-out: inter-TMD FRET increase EC50, co-expression of SNAP- and CLIP-mGluR2-TMD
pEC50: −log10 of the molar value.
RESULT TYPE: pEC50

                                   compound  result_number
0  COc1ccccc1Oc1ccc(N(Cc2cccnc2)S(=O)(=O)CC(F)(F)F)cc1 [LY48]           6.05
